# Target Or Test System: PDGF-BB (platelet-derived growth factor BB) (Homo sapiens)
# Assay Remarks: filter
# Experimental Setup: Bn-dU; C3 at 13
Measured Endpoint: Kd

-- ask Could you share what Kd was measured for TTACGACTACGTACACGCGTTTATAGCG [4149-8_76] , tested on PDGF-BB (platelet-derived growth factor BB) (Homo sapiens)?
-- reply > 10 nM

###

# Target Or Test System: PDGF-BB (platelet-derived growth factor BB) (Homo sapiens) (UniProt P01127)
# Sequence (P01127 82-190): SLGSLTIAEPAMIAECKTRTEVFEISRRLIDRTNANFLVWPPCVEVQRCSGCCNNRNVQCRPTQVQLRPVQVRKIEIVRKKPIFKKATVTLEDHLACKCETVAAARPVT
# Assay Remarks: filter
# Experimental Setup: Bn-dU; C3 at 11
Measured Endpoint: Kd

-- ask # input sequence: TTACGACTACTTACACGCGTTTATAGCG [4149-8_74] ; wanted: its Kd
-- reply > 10 nM
